- testedSystem: full length human DGKζ (Homo sapiens (Human), UniProt Q13574)
- Sequence (Q13574 whole entry, looked up): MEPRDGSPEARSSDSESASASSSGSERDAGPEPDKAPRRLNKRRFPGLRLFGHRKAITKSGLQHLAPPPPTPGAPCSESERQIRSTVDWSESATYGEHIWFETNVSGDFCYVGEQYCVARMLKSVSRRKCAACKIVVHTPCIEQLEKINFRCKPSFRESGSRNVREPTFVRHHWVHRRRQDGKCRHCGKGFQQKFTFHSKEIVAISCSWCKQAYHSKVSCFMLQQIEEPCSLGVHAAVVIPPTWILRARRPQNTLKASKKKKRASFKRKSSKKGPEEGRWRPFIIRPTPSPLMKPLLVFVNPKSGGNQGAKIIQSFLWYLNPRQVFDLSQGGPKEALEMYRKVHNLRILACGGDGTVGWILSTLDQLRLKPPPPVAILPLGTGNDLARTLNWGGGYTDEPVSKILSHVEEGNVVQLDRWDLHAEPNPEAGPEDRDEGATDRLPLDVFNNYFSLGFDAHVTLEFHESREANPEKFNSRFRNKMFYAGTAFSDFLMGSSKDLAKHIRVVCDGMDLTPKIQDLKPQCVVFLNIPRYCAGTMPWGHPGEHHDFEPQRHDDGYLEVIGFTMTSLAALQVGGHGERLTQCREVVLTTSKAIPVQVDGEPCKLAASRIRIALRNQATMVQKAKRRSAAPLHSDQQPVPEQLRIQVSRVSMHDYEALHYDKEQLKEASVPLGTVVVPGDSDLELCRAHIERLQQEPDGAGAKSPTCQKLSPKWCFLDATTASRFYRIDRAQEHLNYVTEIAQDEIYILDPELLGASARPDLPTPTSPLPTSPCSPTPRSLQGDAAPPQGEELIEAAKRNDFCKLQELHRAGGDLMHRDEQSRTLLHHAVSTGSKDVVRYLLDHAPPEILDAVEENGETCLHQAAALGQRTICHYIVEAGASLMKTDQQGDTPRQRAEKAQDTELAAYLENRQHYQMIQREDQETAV
- assaySummary: In vitro DGK inhibition assay, Method B (DGKζ LIPGLO, extruded liposomes)
- Assay type: biochemical
- conditionContext: liposome (LIPGLO) assay; read-out: DGKζ LIPGLO IC50
assayMetric: pIC50
FYI, pIC50 means -log10 of a concentration in mol per litre.

Completed entries (count: 5):
>  <compound>
CCO[C@@H]1CN(c2nc(=O)n(C)c3ccc(C#N)nc23)CC[C@H]1Oc1ccc(OC(C)C)cn1 (relative stereo) [Example 401]

>  <reportedValue>
6.41

$$$$
>  <compound>
CCO[C@H]1CN(c2cc(=O)n(C)c3ccc(C#N)nc23)CC[C@@H]1Oc1cnc(OC(C)C)cn1 [Example 377]

>  <reportedValue>
7.12

$$$$
>  <compound>
CCO[C@H]1CN(c2cc(=O)n(C)c3ccc(C#N)nc23)CC[C@@H]1Oc1ccc(OC(C)C)cn1 (relative stereo)

>  <reportedValue>
5.92

$$$$
>  <compound>
CC(C)O[C@@H]1CN(c2cc(=O)n(C)c3ccc(C#N)nc23)CC[C@H]1Oc1cccc(C(F)(F)F)c1 (relative stereo) [Example 395]

>  <reportedValue>
7.16

$$$$
>  <compound>
CCO[C@@H]1CN(c2nc(=O)n(C)c3ccc(C#N)nc23)CC[C@H]1Oc1ccc(OC(C)C)cn1 (relative stereo) [Example 400]

>  <reportedValue>
6.15

$$$$

Briefly, pIC50 measured for CCO[C@H]1CN(c2nc(=O)n(C)c3ccc(C#N)nc23)CC[C@@H]1Oc1ccccc1 (relative stereo) [Example 402] : 6.05

----------
- Tested on: Human venous whole blood (IFN-γ)
- assaySummary: Human whole blood IFN-γ assay
- Type: cell-based
- conditionContext: Homo sapiens, 24 h, human whole blood, anti-CD3 plus anti-CD28, 24 hours; read-out: INFg Whole Blood Normalized Agonist EC50
- Protocol: Assay 10: Human Whole Blood IFN-γ Assay Human venous whole blood (22.5 μL per well), obtained from healthy donors, was pre-treated with compounds for one hour at 37° C. in a humidified 95% air/5% CO2 incubator. The blood was stimulated with 2.5 μL anti-human CD3 and anti-CD28 mAb at a final concentration of 1 μg/mL each for 24 hours at 37° C. IFN-γ in the supernatants was measured using AlphLISA kit (Cat #AL217).
# maps each entry to its EC50
Field format: number, assumed µM, no unit text.

Solved cases (3 shown):
>  <molecule>
C[C@@H]1CN(c2cc(=O)n(C)c3ccc(C#N)nc23)CC[C@H]1Oc1ccc(F)c(F)c1 (racemic) [Example 103]

>  <valueUnits>
µM

>  <EC50>
1.5

$$$$
>  <molecule>
Cc1ccc(O[C@@H]2CCN(c3cc(=O)n(C)c4ccc(C#N)nc34)C[C@H]2C)cc1 (single isomer, unassigned) [Example 120]

>  <valueUnits>
µM

>  <EC50>
4.7

$$$$
>  <molecule>
CCCCCc1ccc(OC2CCN(c3cc(=O)n(C)c4ccc(C#N)nc34)CC2)cc1 [Example 62]

>  <valueUnits>
µM

>  <EC50>
20

$$$$

Now look at this one.
What the record says about C[C@@H]1CN(c2cc(=O)n(C)c3ccc(C#N)nc23)CC[C@H]1Oc1ccc(C(F)(F)F)cc1 (racemic) [Example 97] : EC50 is 1.9
